Where do the numbers come from? From patent US20240425478A1.

target: Cyclin Dependent Kinase 2/Cyclin E1 (CDK2-cycE1) (Homo sapiens, UniProt P24941); construct: purchased ProQinase 0050-0055-1; assay: CDK2-cycE1 TR-FRET (LANCE) enzyme assay; type: biochemical; details: Table O, enzymatic assay; read-out: CDK2 Ki
pKi: −log10 of the molar value.
The reader will find reported pKi values listed item by item below.
MEASURED_PARAMETER: pKi

1) Cc1nccnc1Nc1cc([C@H]2CC[C@@H](OC(=O)NC(C)C)C2)[nH]n1 [Example 2T]
9.07
2) Cc1ccncc1Nc1cc([C@H]2CC[C@@H](OC(=O)NC(C)(C)C)C2)[nH]n1 [Example 4A]
8.59
3) Cc1nccc(Nc2cc([C@H]3CC[C@@H](OC(=O)NC(C)C)C3)[nH]n2)n1 [Example 2O]
9.06
4) Cc1nc(C#N)ccc1Nc1cc([C@H]2CC[C@@H](OC(=O)NC(C)C)C2)[nH]n1 [Example 2Z]
8.30
5) Cn1cnc(Nc2cc([C@H]3CC[C@@H](OC(=O)NC45CC(C4)C5)C3)[nH]n2)cc1=O [Example 9B]
9.46
6) Cc1nc(C(=O)N(C)C)ccc1Nc1cc([C@H]2CC[C@@H](OC(=O)NC3(C)CC3)C2)[nH]n1 [Example 7]
9.44
7) Cc1cncc(Nc2cc([C@H]3CC[C@@H](OC(=O)NC(C)C)C3)[nH]n2)n1 [Example 2M]
9.59
8) Cc1ccc(Nc2cc([C@H]3CC[C@@H](OC(=O)NC(C)(C)C)C3)[nH]n2)cn1 [Example 4B]
9.28
